Molecular target: CXCR7 (Homo sapiens, UniProt P25106)
Construct: host or cells: CHO-K1 (PathHunter CHO-K1 CXCR7 b-arrestin cell line, stably transfected)
Sequence (P25106 whole entry): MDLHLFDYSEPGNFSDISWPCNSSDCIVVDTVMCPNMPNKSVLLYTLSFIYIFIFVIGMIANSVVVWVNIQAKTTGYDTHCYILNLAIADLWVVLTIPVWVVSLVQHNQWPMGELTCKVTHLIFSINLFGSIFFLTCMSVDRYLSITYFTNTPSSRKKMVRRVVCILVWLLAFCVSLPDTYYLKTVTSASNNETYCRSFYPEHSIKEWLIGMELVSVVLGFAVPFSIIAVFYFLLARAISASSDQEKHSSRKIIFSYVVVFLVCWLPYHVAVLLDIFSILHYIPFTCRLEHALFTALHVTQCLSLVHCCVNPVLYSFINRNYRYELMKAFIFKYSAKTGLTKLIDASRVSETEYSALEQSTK
Sequence (P32121 whole entry partner): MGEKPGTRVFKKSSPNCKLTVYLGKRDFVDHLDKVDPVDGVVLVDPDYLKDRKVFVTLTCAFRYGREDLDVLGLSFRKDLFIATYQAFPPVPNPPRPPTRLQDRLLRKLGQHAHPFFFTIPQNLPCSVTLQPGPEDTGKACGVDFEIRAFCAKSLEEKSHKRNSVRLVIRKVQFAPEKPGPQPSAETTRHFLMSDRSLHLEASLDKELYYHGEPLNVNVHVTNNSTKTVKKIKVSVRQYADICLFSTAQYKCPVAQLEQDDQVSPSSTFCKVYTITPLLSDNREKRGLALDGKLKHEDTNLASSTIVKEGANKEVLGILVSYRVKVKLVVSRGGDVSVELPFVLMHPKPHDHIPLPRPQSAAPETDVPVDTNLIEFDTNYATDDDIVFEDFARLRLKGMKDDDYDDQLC
Test: PathHunter CHO-K1 CXCR7 b-arrestin recruitment assay (CXCR7 agonistic activity)
Format: cell-based
Conditions: PathHunter CHO-K1 CXCR7 b-arrestin cell line
Experimental: The CXCl12 receptor and CXCR7 agonistic activities of the compounds of formula (I) are determined in accordance with the following experimental method. The assay is using the PathHunter™ CHO-K1 CXCR7 b-arrestin cell line from DiscoverX. The system is based on the Enzyme Fragment Complementation Technology. Two complementing fragments of the b-galactosidase enzyme are expressed within stably transfected cells. […]
measurement_type: EC50 (nM)
Note: unit nM is implicit; provide only the numeric part.

Task: Request: EC50, test system CXCR7 (Homo sapiens, UniProt P25106), entry CCN1CCc2cccc(NCC(=O)N(CCN(C)C)Cc3ncccc3C(F)(F)F)c2C1
Result: 6

Task: Request: EC50, test system CXCR7 (Homo sapiens, UniProt P25106), entry CCN1CCc2cccc(NCC(=O)N(CCc3ccccc3)CCN(C)C)c2C1
Result: 113

Task: Request: EC50, test system CXCR7 (Homo sapiens, UniProt P25106), entry CN(C)CCN(Cc1ncccc1C(F)(F)F)C(=O)CNc1ccc(F)c2c1CCN(CC1CC1)C2
Result: 16

Task: Request: EC50, test system CXCR7 (Homo sapiens, UniProt P25106), entry CCN1Cc2c(cccc2NCC(=O)N(CCN(C)C)Cc2ccccc2C(F)(F)F)CC1=O
Result: 84

Task: Request: EC50, test system CXCR7 (Homo sapiens, UniProt P25106), entry CN(C)CCN(Cc1nccs1)C(=O)CNc1cccc2c1CCN(CC1CC1)C2
Result: 48

Task: Request: EC50, test system CXCR7 (Homo sapiens, UniProt P25106), entry CNCCN(Cc1ccccc1C(F)(F)F)C(=O)CNc1cccc2c1CCN(C(=O)NC1CCCCC1)C2
Result: 326

Task: Request: EC50, test system CXCR7 (Homo sapiens, UniProt P25106), entry O=C(CNc1cccc2c1CCN(CC1CC1)C2)N(CCN1CCCCCC1)Cc1ccccc1C(F)(F)F
Result: 2

Task: Request: EC50, test system CXCR7 (Homo sapiens, UniProt P25106), entry CNCCN(Cc1ccccc1C(F)(F)F)C(=O)CNc1cccc2c1CC(=O)N(CC(C)C)C2
Result: 51

###

biological target: CXCR7 (Homo sapiens, UniProt P25106); experiment: PathHunter CHO-K1 CXCR7 b-arrestin recruitment assay (CXCR7 agonistic activity); conditions: PathHunter CHO-K1 CXCR7 b-arrestin cell line
I'd appreciate it if you could supply pEC50 values for the items below.
Lab note — pEC50 values are minus log10 of concentrations in M.

Task: For the compound CCN1CCc2cccc(NCC(=O)N(CCN(C)C)Cc3ncccc3C)c2C1 , what pEC50 is on record?
Result: 7.39

Task: For the compound CN(CCN(Cc1ncccc1C(F)(F)F)C(=O)CNc1cccc2c1CN(CC1CC1)CC2)CC(F)(F)F , what pEC50 is on record?
Result: 7.20

Task: For the compound Cc1ccc2c(c1NCC(=O)N(CCN(C)C)Cc1ccccc1C(F)(F)F)CCN(CC1CC1)C2 , what pEC50 is on record?
Result: 8.30

Task: For the compound CCC(=O)N1CCc2c(cccc2NCC(=O)N(Cc2ccccc2)Cc2nccn2C)C1 , what pEC50 is on record?
Result: 6.35

Task: For the compound CCN1CCc2cccc(NCC(=O)N(CCN(C)C)Cc3cccc(F)c3)c2C1 , what pEC50 is on record?
Result: 7.19

Task: For the compound CCCCNC(=O)N1CCc2c(cccc2NCC(=O)N(CCNC)Cc2ncccc2C(F)(F)F)C1 , what pEC50 is on record?
Result: 6.92

Task: For the compound CC(C)(C)OC(=O)N1CCC(CN(Cc2ccccc2C(F)(F)F)C(=O)CNc2cccc3c2CCN(CC2CC2)C3)C1 (centres unmarked) , what pEC50 is on record?
Result: 7.38

Task: For the compound CNCCN(Cc1ccccc1Br)C(=O)CNc1cccc2c1CCN(CC1CC1)C2 , what pEC50 is on record?
Result: 8.15

###

biological target: UniProtKB P25106; assay: PathHunter CHO-K1 CXCR7 b-arrestin recruitment assay (CXCR7 agonistic activity); conditions: PathHunter CHO-K1 CXCR7 b-arrestin cell line
I'd appreciate it if you could supply pEC50 values for the items below.
Lab note — pEC50 values are minus log10 of concentrations in M.

Task: For the compound CN(C)CCN(Cc1ccccc1C(F)(F)F)C(=O)CNc1cccc2c1CN(C(N)=O)CC2 , what pEC50 is on record?
Result: 7.00

Task: For the compound O=C(/C=C/c1cccc2c1CCN(CC1CC1)C2)N(CCc1ccc(F)cc1)Cc1ccccc1 , what pEC50 is on record?
Result: 7.27

Task: For the compound CCC(=O)N1CCc2c(cccc2NCC(=O)N(CCN(C)C)Cc2ccccc2)C1 , what pEC50 is on record?
Result: 7.49

###

Target: CXCR7 (Homo sapiens, UniProt P25106)
Assay: PathHunter CHO-K1 CXCR7 b-arrestin recruitment assay (CXCR7 agonistic activity)
Conditions: PathHunter CHO-K1 CXCR7 b-arrestin cell line
Procedure: The CXCl12 receptor and CXCR7 agonistic activities of the compounds of formula (I) are determined in accordance with the following experimental method. The assay is using the PathHunter™ CHO-K1 CXCR7 b-arrestin cell line from DiscoverX. The system is based on the Enzyme Fragment Complementation Technology. Two complementing fragments of the b-galactosidase enzyme are expressed within stably transfected cells. […]
Field: label. Allowed values: rule met (EC50 < 100 nM) or rule not met (EC50 >= 100 nM).

Task: Just wondering, is EC50 of CN(C)CCN(Cc1ccccc1C(F)(F)F)C(=O)CNc1cccc2c1CN(CC1CC1)CC2(C)C below 100 nM?
Result: rule not met

Task: Just wondering, is EC50 of CN(C)CCN(Cc1ncccc1Br)C(=O)CNc1cccc2c1CN(CC1CC1)CC2 below 100 nM?
Result: rule met

Task: Just wondering, is EC50 of COCCN1CCc2c(CCC(=O)N(CCN3CCC(F)(F)CC3)Cc3ncccc3Cl)cccc2C1 below 100 nM?
Result: rule not met

Task: Just wondering, is EC50 of CN(C)CCN(Cc1c(F)cccc1F)C(=O)CNc1cccc2c1CCN(CC1CC1)C2 below 100 nM?
Result: rule met

Task: Just wondering, is EC50 of CCN1CCc2cccc(NCC(=O)N(Cc3ccccc3C(F)(F)F)C3CCOCC3)c2C1 below 100 nM?
Result: rule not met

Task: Just wondering, is EC50 of O=C(CNc1cccc2c1CCN(CC1CC1)C2)N(Cc1cncs1)Cc1ccccc1C(F)(F)F below 100 nM?
Result: rule met

Task: Just wondering, is EC50 of CCN1CCc2cccc(NCC(=O)N(CCN(C)C)Cc3ccc(C)cn3)c2C1 below 100 nM?
Result: rule not met

Task: Just wondering, is EC50 of CN(C)CCN(Cc1ccccc1C(F)(F)F)C(=O)CNc1cccc2c1CN(CC1CC1)CC2 below 100 nM?
Result: rule not met

###

I'd appreciate it if you could supply EC50 values for the items below.
target: CXCR7 (Homo sapiens, UniProt P25106); assay: PathHunter CHO-K1 CXCR7 b-arrestin recruitment assay (CXCR7 agonistic activity); conditions: PathHunter CHO-K1 CXCR7 b-arrestin cell line
Note: unit nM is implicit; provide only the numeric part.

Task: Request: EC50, test system CXCR7 (Homo sapiens, UniProt P25106), entry CN(C)CCN(Cc1ncccc1Cl)C(=O)CNc1cccc2c1CN(CC1CC1)CC2
Result: 8

Task: Request: EC50, test system CXCR7 (Homo sapiens, UniProt P25106), entry CN(C)CCN(Cc1cccc(Br)c1)C(=O)CNc1cccc2c1CCN(CC1CC1)C2
Result: 5

Task: Request: EC50, test system CXCR7 (Homo sapiens, UniProt P25106), entry CS(=O)(=O)NCCN(Cc1ccccc1C(F)(F)F)C(=O)CNc1cccc2c1CCN(CC1CC1)C2
Result: 81

Task: Request: EC50, test system CXCR7 (Homo sapiens, UniProt P25106), entry CCN1CCc2cccc(NCC(=O)N(Cc3ccccc3C(F)(F)F)C3CCCN(C)C3)c2C1 (racemic)
Result: 9

###

molecular target: CXCR7 (Homo sapiens, UniProt P25106); test: PathHunter CHO-K1 CXCR7 b-arrestin recruitment assay (CXCR7 agonistic activity); conditions: PathHunter CHO-K1 CXCR7 b-arrestin cell line
measurement_type: EC50 (nM)
Note: unit nM is implicit; provide only the numeric part.

Task: For the molecule CCC(=O)N1CCc2c(cccc2NCC(=O)N(CCN(C)C)Cc2ccccc2C)C1 , what EC50 is on record?
Result: 15

Task: For the molecule O=C(CNc1cccc2c1CCN(CC1CC1)C2)N(CCCN1CCCC1)Cc1ccccc1C(F)(F)F , what EC50 is on record?
Result: 3

Task: For the molecule COCCN1CCc2c(/C=C/C(=O)N(Cc3ncccc3Cl)CC(C)(C)O)cccc2C1 , what EC50 is on record?
Result: 293

Task: For the molecule CN(C)CCN(CCc1ccccc1C(F)(F)F)C(=O)CNc1cccc2c1CCN(CC1CC1)C2 , what EC50 is on record?
Result: 24
